Entry source: ChEMBL document CHEMBL4011650

- Assay name: Antiproliferative activity against human HT-29 cells assessed as cell viability at 100 uM after 72 hrs under normoxic conditions by MTT assay relative to control
- Format: cell-based
- Condition summary: read-out: Activity
Items are presented alongside their recorded viability at 72 h, 100 µM.
# output: bare number, implied unit %

# Compound, U, viability at 72 h, 100 µM
rows = [
    ("O=c1[nH]c2cc(Cl)cc(Cl)c2c(=O)n1O", "%", 95.9),
]

Q: Entry CC(=O)Nc1nnc(S(N)(=O)=O)s1 [ACETAZOLAMIDE] needs its viability at 72 h, 100 µM filled in; supply it.
A: 95.8

Q: Entry `O=c1[nH]c2cc(Cl)c([N+](=O)[O-])cc2c(=O)n1O` needs its viability at 72 h, 100 µM filled in; supply it.
A: 61.2

Q: Entry `O=C1C=CCN1c1cc2c(=O)n(O)c(=O)[nH]c2cc1Cl` needs its viability at 72 h, 100 µM filled in; supply it.
A: 57.3

Q: Entry `O=c1[nH]c2cc(C(F)(F)F)c([N+](=O)[O-])cc2c(=O)n1O` needs its viability at 72 h, 100 µM filled in; supply it.
A: 45.3

Q: Entry `O=C(NCc1ccccc1)Nc1ccc2[nH]c(=O)n(O)c(=O)c2c1` needs its viability at 72 h, 100 µM filled in; supply it.
A: 51.7

Q: Entry `O=c1[nH]c2ccc([N+](=O)[O-])cc2c(=O)n1O` needs its viability at 72 h, 100 µM filled in; supply it.
A: 94.1

Q: Entry `O=c1[nH]c2cc(Cl)c(Cl)cc2c(=O)n1O` needs its viability at 72 h, 100 µM filled in; supply it.
A: 73.5

* * *

Items are presented alongside their recorded viability at 48 h, 100 µM.
- Assay name: Antiproliferative activity against human HT-29 cells assessed as cell viability at 100 uM after 48 hrs under normoxic conditions by MTT assay relative to control
- Format: cell-based
- Condition summary: read-out: Activity
# output: bare number, implied unit %

Consider the following illustrative entries.
# Molecule, Readout, Observed measurement
measured = [
    ("O=C1C=CCN1c1cc2c(=O)n(O)c(=O)[nH]c2cc1Cl", "viability at 48 h, 100 µM", 56.2),
    ("O=c1[nH]c2cc(Cl)c(Cl)cc2c(=O)n1O", "viability at 48 h, 100 µM", 91),
    ("O=c1[nH]c2cc(C(F)(F)F)c([N+](=O)[O-])cc2c(=O)n1O", "viability at 48 h, 100 µM", 57.7),
]

Q: Entry `O=c1[nH]c2cc(Cl)cc(Cl)c2c(=O)n1O` needs its viability at 48 h, 100 µM filled in; supply it.
A: 93.8

Q: Entry `O=c1[nH]c2cc(Cl)c([N+](=O)[O-])cc2c(=O)n1O` needs its viability at 48 h, 100 µM filled in; supply it.
A: 72.5

Q: Entry CC(=O)Nc1nnc(S(N)(=O)=O)s1 [ACETAZOLAMIDE] needs its viability at 48 h, 100 µM filled in; supply it.
A: 101

Q: Entry `O=C(NCc1ccccc1)Nc1ccc2[nH]c(=O)n(O)c(=O)c2c1` needs its viability at 48 h, 100 µM filled in; supply it.
A: 56.9

Q: Entry `O=c1[nH]c2ccc([N+](=O)[O-])cc2c(=O)n1O` needs its viability at 48 h, 100 µM filled in; supply it.
A: 95.5
